molecular target: Rat KMO (Rattus norvegicus, UniProt O88867); construct: The GST-tagged full-length KMO (1-478) baculovirus vector contained a thrombin cleavage site; GST (thrombin cleavage site between GST and KMO) (N, cleaved yes); made in house; host or cells: Spodoptera frugiperda (Sf9), baculovirus; assay: Rat KMO enzyme (cell-free) assay, NADPH consumption by absorbance; type: biochemical; conditions: conc 1 μM, duplicates; read-out: inhibition rate, Rat-KMO cell-free assay (Figure 1B source data)
Sequence (O88867 whole entry): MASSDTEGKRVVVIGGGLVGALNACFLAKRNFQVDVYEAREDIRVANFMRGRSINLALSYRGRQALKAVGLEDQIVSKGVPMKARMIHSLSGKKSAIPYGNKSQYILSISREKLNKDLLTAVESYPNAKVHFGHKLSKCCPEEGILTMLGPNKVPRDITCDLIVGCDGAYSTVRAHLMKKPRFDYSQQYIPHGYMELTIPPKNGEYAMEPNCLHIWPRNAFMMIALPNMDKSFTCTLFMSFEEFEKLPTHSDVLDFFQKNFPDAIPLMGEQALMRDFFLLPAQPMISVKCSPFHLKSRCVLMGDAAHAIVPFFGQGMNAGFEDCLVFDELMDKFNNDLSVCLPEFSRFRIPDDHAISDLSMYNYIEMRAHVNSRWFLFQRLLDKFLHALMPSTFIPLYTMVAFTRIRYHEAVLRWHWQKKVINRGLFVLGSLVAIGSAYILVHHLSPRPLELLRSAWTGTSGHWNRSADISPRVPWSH
OBSERVATION_TYPE: inhibition at 1 µM (%)
Dear colleague, please return just the value in %, with no unit written.

Below are worked cases with known answers.
Cc1cnn(-c2cccc(C(=O)O)c2)c1-c1ccc(Cl)c(F)c1
84.3
COc1ccc2c(c1)CN(c1nc(C(=O)N(C)c3cc(Cl)c(F)cc3C(=O)O)c(Cl)s1)C2
97.8
Cc1cnn(-c2cccc(C(=O)O)c2)c1-c1ccccc1
63.5

Field: next compound
Specify the recorded inhibition at 1 µM for `Cc1cnn(-c2ccc(OCc3ccccc3)c(C(=O)O)c2)c1-c1ccc(Cl)c(F)c1` , system: Rat KMO (Rattus norvegicus, UniProt O88867).
88.8

====

target: hKMO (Homo sapiens, UniProt O15229); construct: purchased Origene; assay: Human KMO enzyme (cell-free) assay, NADPH consumption by absorbance; assay type: biochemical; details: conc 0.3 μM, duplicates; read-out: inhibition rate, Hs-KMO cell-free assay (Figure 1A source data)
# inhibition at 0.3 µM per record follows
Dear colleague, please return just the value in %, with no unit written.

Give inhibition at 0.3 µM for Cc1cnn(-c2cccc(C(=O)O)c2)c1-c1ccccc1 [Compound 1]
66.6

Give inhibition at 0.3 µM for COc1ccc2c(c1)CN(c1nc(C(=O)N(C)c3cc(Cl)c(F)cc3C(=O)O)c(Cl)s1)C2 [Compound 4]
106

Give inhibition at 0.3 µM for Cc1cnn(-c2cccc(C(=O)O)c2)c1-c1ccc(Cl)c(F)c1 [Compound 2]
100

Give inhibition at 0.3 µM for Cc1cnn(-c2ccc(OCc3ccccc3)c(C(=O)O)c2)c1-c1ccc(Cl)c(F)c1 [Compound 3]
103

====

target: hKMO (Homo sapiens, UniProt O15229); construct: purchased Origene; test: Human KMO enzyme (cell-free) assay, NADPH consumption by absorbance; assay type: biochemical; details: conc 0.1 μM, duplicates; read-out: inhibition rate, Hs-KMO cell-free assay (Figure 1A source data)
OBSERVATION_TYPE: inhibition at 0.1 µM
Please make sure the unit comes right after the number.

Below are worked cases with known answers.
Cc1cnn(-c2cccc(C(=O)O)c2)c1-c1ccc(Cl)c(F)c1
96.5%
Cc1cnn(-c2cccc(C(=O)O)c2)c1-c1ccccc1
41.4%
Cc1cnn(-c2ccc(OCc3ccccc3)c(C(=O)O)c2)c1-c1ccc(Cl)c(F)c1
98.8%

Field: next molecule
Give inhibition at 0.1 µM for `COc1ccc2c(c1)CN(c1nc(C(=O)N(C)c3cc(Cl)c(F)cc3C(=O)O)c(Cl)s1)C2`
92.8%

====

# inhibition rate, Hs-KMO cell-free assay (Figure 1A source data) per record follows
biological target: hKMO (Homo sapiens, UniProt O15229); construct: purchased Origene; assay: Human KMO enzyme (cell-free) assay, NADPH consumption by absorbance; type: biochemical; settings: conc 0.03 μM, duplicates
Please make sure the unit comes right after the number.

Cc1cnn(-c2cccc(C(=O)O)c2)c1-c1ccc(Cl)c(F)c1 [Compound 2]
87.349%

Specify the recorded inhibition rate, Hs-KMO cell-free assay (Figure 1A source data) for Cc1cnn(-c2cccc(C(=O)O)c2)c1-c1ccccc1 [Compound 1] , system: hKMO (Homo sapiens, UniProt O15229).
13.527%

Specify the recorded inhibition rate, Hs-KMO cell-free assay (Figure 1A source data) for COc1ccc2c(c1)CN(c1nc(C(=O)N(C)c3cc(Cl)c(F)cc3C(=O)O)c(Cl)s1)C2 [Compound 4] , system: hKMO (Homo sapiens, UniProt O15229).
71.311%

Specify the recorded inhibition rate, Hs-KMO cell-free assay (Figure 1A source data) for Cc1cnn(-c2ccc(OCc3ccccc3)c(C(=O)O)c2)c1-c1ccc(Cl)c(F)c1 [Compound 3] , system: hKMO (Homo sapiens, UniProt O15229).
101.827%

====

biological target: hKMO (Homo sapiens, UniProt O15229); construct: purchased Origene; test: Human KMO enzyme (cell-free) assay, NADPH consumption by absorbance; assay type: biochemical; details: conc 1 μM, duplicates
OBSERVATION_TYPE: inhibition rate, Hs-KMO cell-free assay (Figure 1A source data) (%)
Dear colleague, please return just the value in %, with no unit written.

Below are worked cases with known answers.
Cc1cnn(-c2ccc(OCc3ccccc3)c(C(=O)O)c2)c1-c1ccc(Cl)c(F)c1
95.974
Cc1cnn(-c2cccc(C(=O)O)c2)c1-c1ccc(Cl)c(F)c1
100.287
Cc1cnn(-c2cccc(C(=O)O)c2)c1-c1ccccc1
77.715

Specify the recorded inhibition rate, Hs-KMO cell-free assay (Figure 1A source data) for `COc1ccc2c(c1)CN(c1nc(C(=O)N(C)c3cc(Cl)c(F)cc3C(=O)O)c(Cl)s1)C2` , system: hKMO (Homo sapiens, UniProt O15229).
98.570

====

# inhibition at 0.03 µM per record follows
target: hKMO (Homo sapiens, UniProt O15229); construct: purchased Origene; assay: Human KMO enzyme (cell-free) assay, NADPH consumption by absorbance; assay type: biochemical; settings: conc 0.03 μM, duplicates; read-out: inhibition rate, Hs-KMO cell-free assay (Figure 1A source data)
Please make sure the unit comes right after the number.

Below are worked cases with known answers.
COc1ccc2c(c1)CN(c1nc(C(=O)N(C)c3cc(Cl)c(F)cc3C(=O)O)c(Cl)s1)C2
74.2%
Cc1cnn(-c2cccc(C(=O)O)c2)c1-c1ccc(Cl)c(F)c1
85.6%
Cc1cnn(-c2ccc(OCc3ccccc3)c(C(=O)O)c2)c1-c1ccc(Cl)c(F)c1
102%

Field: next compound
Give inhibition at 0.03 µM for `Cc1cnn(-c2cccc(C(=O)O)c2)c1-c1ccccc1`
15.1%

====

target: HEK293 cells stably expressing human KMO (Homo sapiens); construct: expressed in transfected cells; experiment: Cell-based human KMO inhibition assay (LC/MS of 3-hydroxykynurenine); details: HEK293 cells expressing human KMO, LC/MS; read-out: Human cell-based assay IC50
Sequence (O15229 whole entry): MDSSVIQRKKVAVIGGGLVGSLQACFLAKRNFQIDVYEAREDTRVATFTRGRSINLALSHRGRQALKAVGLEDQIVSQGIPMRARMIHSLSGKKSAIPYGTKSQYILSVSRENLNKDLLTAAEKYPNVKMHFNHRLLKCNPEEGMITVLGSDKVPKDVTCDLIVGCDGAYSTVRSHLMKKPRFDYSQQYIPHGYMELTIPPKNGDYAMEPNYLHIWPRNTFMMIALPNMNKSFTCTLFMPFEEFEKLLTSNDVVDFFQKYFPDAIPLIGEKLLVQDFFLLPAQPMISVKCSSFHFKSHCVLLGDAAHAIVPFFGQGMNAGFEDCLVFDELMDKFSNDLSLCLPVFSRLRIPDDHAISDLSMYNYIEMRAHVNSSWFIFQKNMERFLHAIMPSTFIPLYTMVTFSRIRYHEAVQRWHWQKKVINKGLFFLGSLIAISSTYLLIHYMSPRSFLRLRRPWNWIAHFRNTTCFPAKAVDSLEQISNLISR
OBSERVATION_TYPE: IC50
Please make sure the unit comes right after the number.

Give IC50 for Cc1cnn(-c2ccc(OCc3ccccc3)c(C(=O)O)c2)c1-c1ccc(Cl)c(F)c1 [Compound 3]
12 nM

Give IC50 for Cc1cnn(-c2cccc(C(=O)O)c2)c1-c1ccc(Cl)c(F)c1 [Compound 2]
30 nM

Give IC50 for Cc1cnn(-c2cccc(C(=O)O)c2)c1-c1ccccc1 [Compound 1]
580 nM

====

molecular target: Rat KMO (Rattus norvegicus, UniProt O88867); construct: The GST-tagged full-length KMO (1-478) baculovirus vector contained a thrombin cleavage site; GST (thrombin cleavage site between GST and KMO) (N, cleaved yes); made in house; host or cells: Spodoptera frugiperda (Sf9), baculovirus; assay: Rat KMO enzyme (cell-free) assay, NADPH consumption by absorbance; assay type: biochemical; details: conc 0.1 μM, duplicates; read-out: inhibition rate, Rat-KMO cell-free assay (Figure 1B source data)
# inhibition at 0.1 µM per record follows
Dear colleague, please return just the value in %, with no unit written.

Cc1cnn(-c2cccc(C(=O)O)c2)c1-c1ccccc1
16
COc1ccc2c(c1)CN(c1nc(C(=O)N(C)c3cc(Cl)c(F)cc3C(=O)O)c(Cl)s1)C2
83
Cc1cnn(-c2ccc(OCc3ccccc3)c(C(=O)O)c2)c1-c1ccc(Cl)c(F)c1
83.1

Field: next molecule
Specify the recorded inhibition at 0.1 µM for `Cc1cnn(-c2cccc(C(=O)O)c2)c1-c1ccc(Cl)c(F)c1` , system: Rat KMO (Rattus norvegicus, UniProt O88867).
46

====

target: hKMO (Homo sapiens); construct: purchased Origene; experiment: Human KMO enzyme (cell-free) assay, NADPH consumption by absorbance; type: biochemical; details: conc 1 μM, duplicates; read-out: inhibition rate, Hs-KMO cell-free assay (Figure 1A source data)
OBSERVATION_TYPE: inhibition at 1 µM (%)
Dear colleague, please return just the value in %, with no unit written.

Below are worked cases with known answers.
COc1ccc2c(c1)CN(c1nc(C(=O)N(C)c3cc(Cl)c(F)cc3C(=O)O)c(Cl)s1)C2
104
Cc1cnn(-c2ccc(OCc3ccccc3)c(C(=O)O)c2)c1-c1ccc(Cl)c(F)c1
103
Cc1cnn(-c2cccc(C(=O)O)c2)c1-c1ccccc1
82.9

Field: next molecule
Give inhibition at 1 µM for `Cc1cnn(-c2cccc(C(=O)O)c2)c1-c1ccc(Cl)c(F)c1`
102

====

test: Pharmacokinetic (brain penetration) study in rats; type: in vivo; conditions: Sprague-Dawley Crl:CD(SD), rat, plasma; male SD rats, 10 mg/kg ip, 1 h after a single administration; read-out: Exposure in plasma
OBSERVATION_TYPE: concentration at 1 h
Please make sure the unit comes right after the number.

Cc1cnn(-c2cccc(C(=O)O)c2)c1-c1ccccc1
869 ng/mL

Field: next compound
Give concentration at 1 h for `Cn1c(=O)[nH]c(=O)c2cc(-c3ncccc3-c3ccc(Cl)c(F)c3)ccc21`
7560 ng/mL
